The values you see were collected from patent US20240116985A1.

Molecular target: full-length beta-Catenin (Uniprot ID P35222) (Homo sapiens, UniProt P35222)
Construct: 10 nM full-length beta-Catenin (Uniprot ID P35222)
Sequence (P35222 whole entry): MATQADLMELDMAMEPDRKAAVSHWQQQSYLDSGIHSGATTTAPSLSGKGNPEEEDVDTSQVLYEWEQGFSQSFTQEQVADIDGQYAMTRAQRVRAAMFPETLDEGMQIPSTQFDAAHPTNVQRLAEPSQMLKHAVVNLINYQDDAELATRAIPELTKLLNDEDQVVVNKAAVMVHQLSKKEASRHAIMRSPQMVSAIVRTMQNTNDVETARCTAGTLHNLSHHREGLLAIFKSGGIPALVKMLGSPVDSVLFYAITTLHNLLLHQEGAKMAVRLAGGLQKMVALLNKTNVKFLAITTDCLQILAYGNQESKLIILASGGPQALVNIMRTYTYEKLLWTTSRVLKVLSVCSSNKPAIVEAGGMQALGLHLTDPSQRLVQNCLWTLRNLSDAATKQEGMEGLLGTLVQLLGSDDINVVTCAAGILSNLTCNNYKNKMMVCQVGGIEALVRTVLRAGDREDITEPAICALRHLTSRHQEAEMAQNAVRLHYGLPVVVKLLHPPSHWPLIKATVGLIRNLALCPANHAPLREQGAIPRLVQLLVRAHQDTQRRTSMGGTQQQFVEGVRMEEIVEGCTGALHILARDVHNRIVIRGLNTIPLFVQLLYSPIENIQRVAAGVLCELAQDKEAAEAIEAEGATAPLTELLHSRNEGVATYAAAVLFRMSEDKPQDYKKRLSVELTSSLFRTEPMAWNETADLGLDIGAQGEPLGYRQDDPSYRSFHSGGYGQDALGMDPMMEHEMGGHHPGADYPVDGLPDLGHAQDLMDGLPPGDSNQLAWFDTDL
Assay: Fluorescence polarization IC50 (beta-catenin / 5FAM-TCF4 10-53 competition)
Format: binding
Details: fluorescence polarization, beta-catenin; read-out: FP EC50
property-label: log10 of IC50 (log10 of the value in nM)
The figures below represent log10 of IC50, where IC50 is stated in nM.

Check out these entries, answers already filled in.
compound	property-label	measured
CC(C)C[C@@H]1NC(=O)[C@H](Cc2ccccc2)NC(=O)[C@H](C)NC(=O)[C@H](C)NC(=O)[C@H](CC(=O)O)NC(=O)[C@H](CC(=O)O)NC(=O)C2(CCCC=CCCCOC(=O)N3CC[C@@](C(=O)N[C@@H](Cc4ccccc4)C(=O)N[C@@H](Cc4csc5ccccc45)C(=O)N[C@@H](CCC(N)=O)C(N)=O)(C3)NC1=O)CCCC=CC[C@]1(CCCN1C(=O)CCCN(C)C)C(=O)N[C@@H](CC(=O)O)C(=O)N[C@@H](CC(C)(C)C)C(=O)N2 (some centres unmarked) [I-1358]	log10 of IC50	1.28
CC(=O)N1CCC[C@]12CC=CCCCC1(CCCC=CCCCCCC[C@@](C)(C(=O)N[C@@H](Cc3cccc(F)c3)C(=O)N[C@@H](Cc3csc4ccccc34)C(=O)N[C@@H](CCC(N)=O)C(N)=O)NC(=O)[C@H](C(C)C)NC(=O)[C@H](Cc3ccccc3)NC(=O)[C@H](C)NC(=O)[C@H](C)NC(=O)[C@H](Cc3c[nH]cn3)NC(=O)[C@H](CC(=O)O)NC1=O)NC(=O)[C@H](C)NC(=O)[C@H](CC(=O)O)NC2=O (some centres unmarked) [I-397]	log10 of IC50	3.35
CC[C@H](C)[C@@H]1NC(=O)[C@H](CC(=O)O)NC(=O)[C@]2(CC=CCCCC3(CCCC=CCCCCCC[C@@](C)(C(=O)N[C@@H](Cc4ccccc4)C(=O)N[C@@H](Cc4c[nH]c5ccccc45)C(N)=O)NC(=O)[C@H](CCC(N)=O)NC(=O)[C@H](Cc4ccccc4)NC(=O)[C@H](C)NC(=O)[C@H](C)NC(=O)[C@H](CCC(=O)O)NC(=O)[C@H](CC(=O)O)NC3=O)NC1=O)CCCN2C(C)=O (some centres unmarked) [I-191]	log10 of IC50	3.22
CC(=O)N1CCC[C@]12CC=CCCCC1(CCCC=CCCCOC(=O)N3CC[C@@](C(=O)N[C@@H](Cc4ccsc4)C(=O)N[C@@H](Cc4csc5ccccc45)C(=O)N[C@@H](CO)C(N)=O)(C3)NC(=O)[C@H](CO)NC(=O)[C@H](Cc3ccccc3)NC(=O)[C@H](C)NC(=O)[C@H](C)NC(=O)[C@H](Cc3cccc(C(=O)O)c3)NC(=O)[C@H](CC(=O)O)NC1=O)NC(=O)[C@H](CC(C)(C)C)NC(=O)[C@H](CC(=O)O)NC2=O (some centres unmarked) [I-985]	log10 of IC50	2.48

Consider now this further compound.
Item CC(=O)N1CCC[C@]12CC=CCCCC1(CCCC=CCCCOC(=O)N3CC[C@@](C(=O)N[C@@H](Cc4ccccc4)C(=O)N[C@@H](Cc4csc5ccccc45)C(=O)N[C@@H](CCC(N)=O)C(N)=O)(C3)NC(=O)[C@H](CC(C)C)NC(=O)[C@H](Cc3ccccc3)NC(=O)[C@H](C)NC(=O)[C@H](C)NC(=O)[C@H](CC(=O)O)NC(=O)[C@H](CC(=O)O)NC1=O)NC(=O)[C@H](CC(C)(C)C)NC(=O)[C@H](CC(=O)O)NC2=O (some centres unmarked) [I-1072] has what recorded log10 of IC50?
2.86
